Data origin, for the record: patent US20070259895A1

Experiment: Determination of brain to plasma ratio in rat
Assay type: in vivo, female Sprague Dawley rats
Details: female, Sprague-Dawley, brain and plasma, read-out: Brain to Plasma Ratio of compound in Rat
ENDPOINT: Kp
One number for each entry.

Sure, the documented Kp for `COc1cc(-c2nnc3n2CCCN3Cc2cc(-c3cccc(Cl)c3)on2)ccn1` is 0.36

* * *

Biological target: human mGluR5d (Homo sapiens, UniProt P41594)
Construct: expressed in transfected cells; The IP3 assay uses GHEK cells stably expressing human mGluR5d
Sequence (P41594 21-942 isoform P41594-3 limits assumed): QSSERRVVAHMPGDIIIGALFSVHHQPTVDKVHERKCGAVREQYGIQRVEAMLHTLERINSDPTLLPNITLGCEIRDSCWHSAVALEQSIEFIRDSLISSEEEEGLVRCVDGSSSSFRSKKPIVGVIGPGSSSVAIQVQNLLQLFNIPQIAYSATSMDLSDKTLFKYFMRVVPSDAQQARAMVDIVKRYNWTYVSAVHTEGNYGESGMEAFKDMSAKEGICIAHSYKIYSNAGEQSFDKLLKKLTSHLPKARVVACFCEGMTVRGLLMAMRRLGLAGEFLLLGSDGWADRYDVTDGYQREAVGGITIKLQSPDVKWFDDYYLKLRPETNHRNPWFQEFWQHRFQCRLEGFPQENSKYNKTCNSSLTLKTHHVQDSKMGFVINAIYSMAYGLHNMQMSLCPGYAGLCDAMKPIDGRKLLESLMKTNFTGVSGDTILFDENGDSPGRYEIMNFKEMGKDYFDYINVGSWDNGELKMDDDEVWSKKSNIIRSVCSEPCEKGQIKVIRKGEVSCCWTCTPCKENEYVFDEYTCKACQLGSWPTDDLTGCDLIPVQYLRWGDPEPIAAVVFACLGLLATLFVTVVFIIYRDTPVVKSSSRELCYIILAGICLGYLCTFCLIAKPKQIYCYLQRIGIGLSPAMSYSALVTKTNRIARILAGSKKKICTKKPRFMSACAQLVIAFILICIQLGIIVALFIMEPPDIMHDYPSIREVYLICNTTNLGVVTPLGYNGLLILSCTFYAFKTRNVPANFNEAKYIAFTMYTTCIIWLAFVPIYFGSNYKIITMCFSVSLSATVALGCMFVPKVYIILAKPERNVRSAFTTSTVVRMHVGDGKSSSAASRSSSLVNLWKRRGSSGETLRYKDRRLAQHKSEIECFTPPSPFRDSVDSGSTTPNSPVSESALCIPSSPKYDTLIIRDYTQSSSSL
Assay: FLIPR assay, mobilization of intracellular calcium in cells expressing mGluR5d
Type: cell-based
ENDPOINT: IC50
Please answer in the form of a number followed by its unit of measurement.

Sure, the documented IC50 for `COc1cc(-c2nnc3n2CCCN3Cc2cc(-c3cccc(Cl)c3)on2)ccn1` is 51 nM
